meta.source: patent US20210087281A1

Assay Target: native human MET on living cells (human, UniProt P08581 25-1390)
Sequence (P08581 25-1390): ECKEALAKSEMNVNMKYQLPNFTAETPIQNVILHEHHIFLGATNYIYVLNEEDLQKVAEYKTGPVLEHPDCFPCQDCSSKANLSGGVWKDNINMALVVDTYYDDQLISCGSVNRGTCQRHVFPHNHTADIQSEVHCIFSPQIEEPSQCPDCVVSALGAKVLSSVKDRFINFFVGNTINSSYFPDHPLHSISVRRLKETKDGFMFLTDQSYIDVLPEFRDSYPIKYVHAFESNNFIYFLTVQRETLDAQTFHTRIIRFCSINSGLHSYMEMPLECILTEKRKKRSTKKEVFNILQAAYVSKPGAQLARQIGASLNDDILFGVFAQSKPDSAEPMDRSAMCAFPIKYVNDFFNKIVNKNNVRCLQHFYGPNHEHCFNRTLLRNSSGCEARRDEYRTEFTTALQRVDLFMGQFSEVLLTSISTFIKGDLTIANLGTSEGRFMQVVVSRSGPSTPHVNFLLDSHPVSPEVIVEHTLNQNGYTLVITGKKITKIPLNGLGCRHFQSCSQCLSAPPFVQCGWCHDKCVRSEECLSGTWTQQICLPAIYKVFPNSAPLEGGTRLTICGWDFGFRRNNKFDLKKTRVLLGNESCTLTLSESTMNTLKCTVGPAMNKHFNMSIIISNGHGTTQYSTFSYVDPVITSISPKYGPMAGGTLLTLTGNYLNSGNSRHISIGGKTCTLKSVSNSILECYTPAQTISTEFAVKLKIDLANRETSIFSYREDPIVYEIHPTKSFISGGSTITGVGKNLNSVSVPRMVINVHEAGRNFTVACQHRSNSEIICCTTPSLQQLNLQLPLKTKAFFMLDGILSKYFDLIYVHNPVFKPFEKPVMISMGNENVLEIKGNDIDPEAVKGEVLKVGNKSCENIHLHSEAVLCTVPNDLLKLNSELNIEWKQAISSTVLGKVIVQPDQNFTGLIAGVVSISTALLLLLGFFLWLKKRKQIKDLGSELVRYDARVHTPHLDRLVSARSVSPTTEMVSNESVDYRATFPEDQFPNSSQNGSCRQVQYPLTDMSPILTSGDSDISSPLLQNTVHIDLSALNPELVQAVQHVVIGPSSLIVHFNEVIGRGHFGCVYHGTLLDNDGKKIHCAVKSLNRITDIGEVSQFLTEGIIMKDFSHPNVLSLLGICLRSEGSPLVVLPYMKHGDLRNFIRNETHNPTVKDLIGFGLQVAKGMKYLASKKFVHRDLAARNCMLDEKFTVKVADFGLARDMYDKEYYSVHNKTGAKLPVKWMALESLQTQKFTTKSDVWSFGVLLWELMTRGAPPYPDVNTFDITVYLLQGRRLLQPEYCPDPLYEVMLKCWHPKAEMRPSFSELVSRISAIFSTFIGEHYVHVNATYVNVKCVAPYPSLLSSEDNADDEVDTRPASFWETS
Assay Protocol: cell-based or functional assay

| Binder | scatter score 0-4, HPAF-II, 1.000 nM [score] |
| --- | --- |
| 76H10 chimeric llama-human IgG1 mAb (antibody, V domains shown, llama VH on human IgG1 CH1-CH2-CH3, llama VL on human lambda CL) VH: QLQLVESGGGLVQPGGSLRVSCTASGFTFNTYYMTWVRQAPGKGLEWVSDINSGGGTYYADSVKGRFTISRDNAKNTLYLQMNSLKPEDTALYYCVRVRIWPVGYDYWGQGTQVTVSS VL: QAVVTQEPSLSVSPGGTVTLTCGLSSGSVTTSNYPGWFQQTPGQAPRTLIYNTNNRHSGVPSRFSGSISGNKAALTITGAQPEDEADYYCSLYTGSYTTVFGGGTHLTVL | 1 |
| 71D4 chimeric llama-human IgG1 mAb (antibody, V domains shown, llama VH on human IgG1 CH1-CH2-CH3, llama VL on human lambda CL) VH: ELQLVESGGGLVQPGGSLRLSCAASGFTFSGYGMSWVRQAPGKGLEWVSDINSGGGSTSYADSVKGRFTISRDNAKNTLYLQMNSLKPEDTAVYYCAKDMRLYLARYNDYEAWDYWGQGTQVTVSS VL: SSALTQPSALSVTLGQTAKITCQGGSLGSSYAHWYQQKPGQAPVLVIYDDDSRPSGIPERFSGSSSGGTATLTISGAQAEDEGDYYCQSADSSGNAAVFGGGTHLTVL | 1 |
| 71A3 chimeric llama-human IgG1 mAb (antibody, V domains shown, llama VH on human IgG1 CH1-CH2-CH3, llama VL on human lambda CL) VH: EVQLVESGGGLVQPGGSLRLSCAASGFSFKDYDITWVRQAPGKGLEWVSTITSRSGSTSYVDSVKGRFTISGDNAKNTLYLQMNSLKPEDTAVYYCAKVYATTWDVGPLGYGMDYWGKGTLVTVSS VL: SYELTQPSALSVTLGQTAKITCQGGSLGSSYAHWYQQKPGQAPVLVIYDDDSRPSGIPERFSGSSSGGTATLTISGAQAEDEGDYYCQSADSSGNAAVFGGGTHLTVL | 4 |
| 71G12 chimeric llama-human IgG1 mAb (antibody, V domains shown, llama VH on human IgG1 CH1-CH2-CH3, llama VL on human kappa CL) VH: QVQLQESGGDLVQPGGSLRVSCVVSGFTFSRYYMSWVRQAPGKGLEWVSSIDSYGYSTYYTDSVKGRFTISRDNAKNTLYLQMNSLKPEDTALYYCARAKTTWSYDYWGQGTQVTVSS VL: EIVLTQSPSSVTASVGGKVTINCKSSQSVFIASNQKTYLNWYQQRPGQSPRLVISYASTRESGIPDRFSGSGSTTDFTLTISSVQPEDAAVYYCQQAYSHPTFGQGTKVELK | 2 |
| 71D6 chimeric llama-human IgG1 mAb (antibody, V domains shown, llama VH on human IgG1 CH1-CH2-CH3, llama VL on human lambda CL) VH: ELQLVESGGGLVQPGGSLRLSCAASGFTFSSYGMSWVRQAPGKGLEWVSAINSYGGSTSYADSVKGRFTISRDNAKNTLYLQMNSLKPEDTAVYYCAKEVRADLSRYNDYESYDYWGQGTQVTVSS VL: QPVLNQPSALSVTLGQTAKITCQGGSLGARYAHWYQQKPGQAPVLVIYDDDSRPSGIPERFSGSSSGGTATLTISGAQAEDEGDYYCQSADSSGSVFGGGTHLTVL | 4 |
| 72F8 chimeric llama-human IgG1 mAb (antibody, V domains shown, llama VH on human IgG1 CH1-CH2-CH3, llama VL on human lambda CL) VH: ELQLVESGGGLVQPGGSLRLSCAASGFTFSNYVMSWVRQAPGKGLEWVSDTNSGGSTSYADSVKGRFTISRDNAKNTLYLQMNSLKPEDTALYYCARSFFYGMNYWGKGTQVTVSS VL: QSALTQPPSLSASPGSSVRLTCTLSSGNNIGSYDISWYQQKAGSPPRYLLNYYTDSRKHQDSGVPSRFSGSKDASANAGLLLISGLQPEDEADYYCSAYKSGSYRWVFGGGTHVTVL | 1 |
| 71C3 chimeric llama-human IgG1 mAb (antibody, V domains shown, llama VH on human IgG1 CH1-CH2-CH3, llama VL on human lambda CL) VH: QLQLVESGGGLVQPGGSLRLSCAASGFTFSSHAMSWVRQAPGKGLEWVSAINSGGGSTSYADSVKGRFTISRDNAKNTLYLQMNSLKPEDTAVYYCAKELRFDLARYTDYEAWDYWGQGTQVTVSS VL: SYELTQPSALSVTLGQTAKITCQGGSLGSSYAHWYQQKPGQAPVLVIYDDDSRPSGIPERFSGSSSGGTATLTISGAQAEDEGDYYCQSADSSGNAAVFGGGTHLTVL | 3 |
| 71G2 chimeric llama-human IgG1 mAb (antibody, V domains shown, llama VH on human IgG1 CH1-CH2-CH3, llama VL on human lambda CL) VH: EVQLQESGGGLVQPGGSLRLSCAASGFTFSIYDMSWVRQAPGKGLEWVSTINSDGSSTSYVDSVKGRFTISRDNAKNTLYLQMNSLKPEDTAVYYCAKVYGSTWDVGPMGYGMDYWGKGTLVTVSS VL: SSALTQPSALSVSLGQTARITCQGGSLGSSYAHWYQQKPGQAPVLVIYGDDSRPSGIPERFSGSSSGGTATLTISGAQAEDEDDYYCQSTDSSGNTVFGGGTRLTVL | 4 |
| 76G7 chimeric llama-human IgG1 mAb (antibody, V domains shown, llama VH on human IgG1 CH1-CH2-CH3, llama VL on human lambda CL) VH: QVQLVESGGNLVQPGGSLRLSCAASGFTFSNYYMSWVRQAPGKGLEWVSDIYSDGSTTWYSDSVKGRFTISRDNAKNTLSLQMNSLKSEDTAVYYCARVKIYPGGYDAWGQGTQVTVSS VL: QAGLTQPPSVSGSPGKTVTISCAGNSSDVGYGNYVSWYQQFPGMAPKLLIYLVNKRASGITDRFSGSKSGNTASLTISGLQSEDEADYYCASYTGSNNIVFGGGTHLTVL | 1 |
| 74C8 chimeric llama-human IgG1 mAb (antibody, V domains shown, llama VH on human IgG1 CH1-CH2-CH3, llama VL on human lambda CL) VH: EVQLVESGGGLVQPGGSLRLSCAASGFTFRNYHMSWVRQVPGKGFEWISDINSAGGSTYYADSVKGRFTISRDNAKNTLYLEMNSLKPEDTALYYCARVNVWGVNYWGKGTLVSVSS VL: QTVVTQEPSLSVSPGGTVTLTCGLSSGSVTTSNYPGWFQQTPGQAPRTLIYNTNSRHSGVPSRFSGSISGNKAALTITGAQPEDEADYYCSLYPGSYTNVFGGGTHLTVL | 3 |
| 71G3 chimeric llama-human IgG1 mAb (antibody, V domains shown, llama VH on human IgG1 CH1-CH2-CH3, llama VL on human lambda CL) VH: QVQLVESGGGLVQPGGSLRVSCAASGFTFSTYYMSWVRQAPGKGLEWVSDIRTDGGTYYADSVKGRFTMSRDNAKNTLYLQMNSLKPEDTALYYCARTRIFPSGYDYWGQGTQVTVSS VL: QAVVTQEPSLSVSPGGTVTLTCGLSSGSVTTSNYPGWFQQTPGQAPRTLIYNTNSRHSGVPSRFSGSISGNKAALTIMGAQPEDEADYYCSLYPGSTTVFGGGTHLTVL | 4 |
